- tgt: T1, 人Nectin-4 (human, UniProt Q96NY8 32-349)
- T1 construct: construct not described; also called human Nectin-4; PVRL4
- T1 sequence (looked up): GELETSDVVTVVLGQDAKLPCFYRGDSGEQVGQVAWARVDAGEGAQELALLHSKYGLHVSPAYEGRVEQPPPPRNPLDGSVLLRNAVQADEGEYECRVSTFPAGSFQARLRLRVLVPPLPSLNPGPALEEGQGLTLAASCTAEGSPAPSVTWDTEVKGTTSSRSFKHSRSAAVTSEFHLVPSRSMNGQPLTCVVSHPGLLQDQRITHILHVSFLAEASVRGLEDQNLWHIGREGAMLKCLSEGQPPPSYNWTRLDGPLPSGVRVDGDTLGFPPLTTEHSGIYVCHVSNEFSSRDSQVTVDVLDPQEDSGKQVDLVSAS
- protocol: BLI, VHH-Fc on anti-hIgG Fc probe, human Nectin-4 as analyte
- Parameters: unit not given here
Let's look at some binders and their measured 响应.
endpoint: 响应

INSERT INTO results (binder, experimental_value) VALUES
  ('CMB7-7 (Fc fusion, Tested as VHH fused to human Fc; also called VHH-Fc; not shown: human Fc fused to the VHH) QVQLVESGGGLVQAGGSLRLSCAASGSIFSINAMGWFRQAPGKQRELAAAITSGGSTKYADSVKGRFTISRDNAKNTVYLQMNRLKPEDTGVYYCAAATGEPFEYNYWGQGTQVTVSS', 0.972),
  ('CMB7-23 (Fc fusion, Tested as VHH fused to human Fc; also called VHH-Fc; not shown: human Fc fused to the VHH) QVQLVESGGGLVQPGGSLRLSCAASGSDFTINVMGWYRQAPGKQRELVATVTSGGSLNYADSVKGRFTISRDNAKNTVYLQMNSLKPEDTAVYYCTADQFGPLGHLSPIIYWGQGTQVTVSS', 0.877);
